Molecular target: cloned human glucagon receptor (Homo sapiens)
Construct: expressed in transfected cells; plasma membrane preparation
Sequence (P47871 26-477): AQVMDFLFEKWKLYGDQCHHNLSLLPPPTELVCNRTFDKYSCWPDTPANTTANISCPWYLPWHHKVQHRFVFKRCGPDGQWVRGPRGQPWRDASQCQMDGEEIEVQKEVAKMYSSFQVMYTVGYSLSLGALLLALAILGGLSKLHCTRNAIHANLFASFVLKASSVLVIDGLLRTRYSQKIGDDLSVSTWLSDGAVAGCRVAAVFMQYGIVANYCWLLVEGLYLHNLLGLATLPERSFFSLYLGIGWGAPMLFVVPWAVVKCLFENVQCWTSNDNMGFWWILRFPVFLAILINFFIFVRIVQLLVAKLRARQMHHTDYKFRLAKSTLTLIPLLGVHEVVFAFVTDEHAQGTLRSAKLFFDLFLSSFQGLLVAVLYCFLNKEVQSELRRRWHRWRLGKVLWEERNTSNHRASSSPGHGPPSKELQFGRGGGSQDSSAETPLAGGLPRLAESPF
Test: Glucagon Binding Assay (I)
Conditions: plasma membranes of BHK cells expressing the receptor, 125I-glucagon tracer; read-out: Glu Bd Assay (I) IC50
IC50 under 700 nM gets true, anything at or over 700 nM gets false.

Compound	Tested Target	Assigned Class
COC(C)(C)C1CCC(N(Cc2ccc(C(=O)NCCC(=O)O)cc2)C(=O)Nc2ccc(OC(F)(F)F)cc2)CC1 (stereo not drawn)	cloned human glucagon receptor (Homo sapiens)	false
CC(C)(C)C1CCC(N(Cc2ccc(C(=O)NCCC(=O)O)cc2)C(=O)Nc2cccc(C(F)(F)F)c2)CC1 (stereo not drawn) [Example 13]	cloned human glucagon receptor (Homo sapiens)	true
O=C(O)CCNC(=O)c1ccc(CN(C(=O)Nc2cc(Cl)cc(Cl)c2)C2CCC3(CC2)SCCS3)cc1	cloned human glucagon receptor (Homo sapiens)	false
O=C(O)CCNC(=O)c1ccc(CN(CCC(c2ccccc2)c2ccccc2)C(=O)c2ccc(Cl)cc2)cc1 [Example 8]	cloned human glucagon receptor (Homo sapiens)	true
O=C(O)CCNC(=O)c1ccc(CN(C(=O)Nc2ccc(OC(F)(F)F)cc2)C2CCCCC2)cc1	cloned human glucagon receptor (Homo sapiens)	false
CC(C)(C)C1CCC(N(Cc2ccc(C(=O)NCCC(=O)O)cc2)C(=O)Nc2ccc(OC(F)(F)F)cc2)CC1 (stereo not drawn) [Example 11]	cloned human glucagon receptor (Homo sapiens)	true

====

Target: human glucagon receptor (Homo sapiens)
Construct: expressed in transfected cells; host or cells: BHK (baby hamster kidney) cells
Assay: Glucagon Binding Assay (III)
Conditions: BHK cell membranes, WGA SPA beads, 125I-glucagon; read-out: Glu Bd Assay (III) IC50
Description: BHK (baby hamster kidney cell line) cells were transfected with the human glucagon receptor and a membrane preparation of the cells was prepared. All steps in the membrane preparation were kept on ice or performed at 4° C. BHK cells were harvested and centrifuged. […] The glucagon binding assay was carried out in opti plates (Polystyrene Microplates, Packard). […] The opti plates were counted in a Topcounter. Non-specific binding was determined with 500 nM of glucagon.
pIC50: −log10 of the molar value.
Entries and their pIC50
Readout: pIC50

Compound	Readout	Result Number
O=C(Nc1nn[nH]n1)c1ccc(CN(C(=O)Nc2ccc(OC(F)(F)F)cc2)c2ccc(C3=CCCCC3)cc2)cc1	pIC50	7.30
CCCCOc1ccc(N(Cc2ccc(C(=O)NCCC(=O)O)cc2)C(=O)Nc2ccc(OC(F)(F)F)cc2)cc1	pIC50	6.43
CC(C)(C)C1CCC(N(Cc2ccc(C(=O)NCCC(=O)O)cc2)C(=O)Nc2ccc(Oc3ccccc3)cc2)CC1 (stereo not shown) [Example 17]	pIC50	7.57
CCCc1ccc(N(Cc2ccc(C(=O)NCCC(=O)O)cc2)C(=O)Nc2ccc(OC(F)(F)F)cc2)cc1	pIC50	6.74
CCC(C)(C)C1CCC(N(Cc2ccc(C(=O)NCCC(=O)O)cc2)NC(=O)c2ccc(OC(F)(F)F)cc2)CC1 (stereo not shown)	pIC50	7.43
CCCCOC(=O)c1ccc(NC(=O)N(Cc2ccc(C(=O)NCCC(=O)O)cc2)C2CCC(C(C)(C)C)CC2)cc1 (stereo not shown) [Example 33]	pIC50	6.98
CN(c1ccccc1)S(=O)(=O)c1cccc(NC(=O)N(Cc2ccc(C(=O)NCCC(=O)O)cc2)c2ccc(C3CCCCC3)cc2)c1	pIC50	7.39

====

Target: human glucagon receptor (Homo sapiens)
Construct: expressed in transfected cells; host or cells: BHK (baby hamster kidney) cells
Assay: Glucagon Binding Assay (III)
Settings: BHK cell membranes, WGA SPA beads, 125I-glucagon; read-out: Glu Bd Assay (III) IC50

Molecule	Tested Target	IC50
CC(=O)c1ccc(NC(=O)N(Cc2ccc(C(=O)NCCC(=O)O)cc2)C2CCC(C(C)(C)C)CC2)cc1 (centres unmarked) [Example 32]	human glucagon receptor (Homo sapiens)	1680 nM
CC(C)(C)c1ccc(N(Cc2ccc(C(=O)Nc3nn[nH]n3)cc2)C(=O)Nc2cccc([N+](=O)[O-])c2)cc1	human glucagon receptor (Homo sapiens)	52 nM
O=C(Nc1nn[nH]n1)c1ccc(CN(C(=O)c2cccc(C(F)(F)F)c2)c2ccc(C3CCCCC3)cc2)cc1	human glucagon receptor (Homo sapiens)	1100 nM
O=C(Nc1nn[nH]n1)c1ccc(CN(C(=O)Nc2ccc(F)c(C(F)(F)F)c2)c2ccc(C3CCCCC3)cc2)cc1	human glucagon receptor (Homo sapiens)	9 nM
Cn1nnc(-c2cccc(NC(=O)N(Cc3ccc(C(=O)Nc4nn[nH]n4)cc3)c3ccc(C(C)(C)C)cc3)c2)n1	human glucagon receptor (Homo sapiens)	87 nM
O=C(Nc1nn[nH]n1)c1ccc(CN(C(=O)Nc2cccc(S(=O)(=O)CC3CC3)c2)c2ccc(C3CCCCC3)cc2)cc1	human glucagon receptor (Homo sapiens)	116 nM
CCCCC(CC)CN(Cc1ccc(C(=O)NCCC(=O)O)cc1)C(=O)Nc1ccc(C(C)C)cc1 (centres unmarked)	human glucagon receptor (Homo sapiens)	1110 nM
CCCCOC(=O)c1ccc(NC(=O)N(CCc2ccc(Cl)cc2)Cc2ccc(C(=O)NCCC(=O)O)cc2)cc1	human glucagon receptor (Homo sapiens)	721 nM
CCCCC(CC)CN(Cc1ccc(C(=O)NCCC(=O)O)cc1)C(=O)Nc1ccc(OC(F)(F)F)cc1 (centres unmarked)	human glucagon receptor (Homo sapiens)	137 nM
O=C(Nc1nn[nH]n1)c1ccc(CN(C(=O)Nc2cc(F)cc(C(F)(F)F)c2)c2ccc(C3CCCCC3)cc2)cc1	human glucagon receptor (Homo sapiens)	18 nM
COc1cc(NC(=O)N(Cc2ccc(C(=O)Nc3nn[nH]n3)cc2)c2ccc(C3CCCCC3)cc2)cc(C(F)(F)F)c1	human glucagon receptor (Homo sapiens)	18 nM
CC(NC(=O)N(Cc1ccc(C(=O)Nc2nn[nH]n2)cc1)c1ccc(C2CCCCC2)cc1)c1ccc(Cl)cc1 (centres unmarked) [Example 336]	human glucagon receptor (Homo sapiens)	58 nM
O=C(O)CCNC(=O)c1ccc(CN(C(=O)Nc2cc(Br)cc(C(F)(F)F)c2)c2ccc(C3CCCCC3)cc2)cc1	human glucagon receptor (Homo sapiens)	17 nM
Cc1ccc(S(C)(=O)=O)cc1NC(=O)N(Cc1ccc(C(=O)Nc2nn[nH]n2)cc1)c1ccc(C2CCCCC2)cc1	human glucagon receptor (Homo sapiens)	302 nM

====

Target: human glucagon receptor (Homo sapiens, UniProt P47871)
Construct: expressed in transfected cells; host or cells: BHK (baby hamster kidney) cells
Assay: Glucagon Binding Assay (III)
Conditions: Glu Bd Assay (III) IC50 (nM), BHK cell membranes, WGA SPA beads, 125I-glucagon
Method: BHK (baby hamster kidney cell line) cells were transfected with the human glucagon receptor and a membrane preparation of the cells was prepared. All steps in the membrane preparation were kept on ice or performed at 4° C. BHK cells were harvested and centrifuged. […] The glucagon binding assay was carried out in opti plates (Polystyrene Microplates, Packard). […] The opti plates were counted in a Topcounter. Non-specific binding was determined with 500 nM of glucagon.
Entries and their IC50

Compound	IC50
CCN(CC)C(=O)c1ccc(NC(=O)N(Cc2ccc(C(=O)NCCC(=O)O)cc2)[C@H]2CC[C@H](C(C)(C)C)CC2)cc1 [Example 240]	2430 nM
CC(C)(C)[C@H]1CC[C@H](N(Cc2ccc(C(=O)NCCC(=O)O)cc2)C(=O)Nc2ccc(OCC3CC3)cc2C(F)(F)F)CC1 [Example 250]	182 nM
CC(C)(C)[C@H]1CC[C@H](N(Cc2ccc(C(=O)NCCC(=O)O)cc2)C(=O)Nc2cc(Cl)cc(Cl)c2)CC1 [Example 255]	80 nM
CC(C)(C)[C@H]1CC[C@H](N(Cc2ccc(C(=O)NCCC(=O)O)cc2)C(=O)Nc2ccc(OCC3CC3)cc2)CC1 [Example 241]	140 nM

====

Molecular target: human glucagon receptor (Homo sapiens, UniProt P47871)
Construct: expressed in transfected cells; host or cells: BHK (baby hamster kidney) cells
Experiment: Glucagon Binding Assay (III)
Details: BHK cell membranes, WGA SPA beads, 125I-glucagon; read-out: Glu Bd Assay (III) IC50
Readout: log10 IC50 (log10 of the value in µM)

Compound	Tested Target	Result Number
CC(C)c1ccc(NC(=O)N(Cc2ccc(C(=O)NCCC(=O)O)cc2)C2CCC(C(C)(C)C)CC2)cc1 (centres unmarked) [Example 56]	human glucagon receptor (Homo sapiens, UniProt P47871)	-1.23
O=C(O)CCNC(=O)c1ccc(CN(C(=O)Nc2cccc([N+](=O)[O-])c2)c2ccc(C3CCCCC3)cc2)cc1	human glucagon receptor (Homo sapiens, UniProt P47871)	-0.78
CC(Oc1ccc(OC(F)(F)F)cc1)C(=O)N(Cc1ccc(C(=O)Nc2nn[nH]n2)cc1)c1ccc(C2CCCCC2)cc1 (centres unmarked)	human glucagon receptor (Homo sapiens, UniProt P47871)	-0.06
O=C(Nc1nn[nH]n1)c1ccc(CN(C(=O)NCc2ccc(OC(F)(F)F)cc2)c2ccc(C3CCCCC3)cc2)cc1	human glucagon receptor (Homo sapiens, UniProt P47871)	-1.10
CCSc1cccc(NC(=O)N(Cc2ccc(C(=O)Nc3nn[nH]n3)cc2)c2ccc(C3CCCCC3)cc2)c1	human glucagon receptor (Homo sapiens, UniProt P47871)	-1.57
CCCCOc1ccc(NC(=O)N(Cc2ccc(C(=O)NCCC(=O)O)cc2)C2CCC(C(C)(C)C)CC2)cc1 (centres unmarked)	human glucagon receptor (Homo sapiens, UniProt P47871)	-1.05
CCCCOC(=O)c1ccc(NC(=O)N(Cc2ccc(C(=O)NCCC(=O)O)cc2)C2CCC(C(C)(C)C)CC2)cc1 (centres unmarked) [Example 61]	human glucagon receptor (Homo sapiens, UniProt P47871)	-1.32
O=C(O)CCNC(=O)c1ccc(CN(C(=O)Nc2ccc(OC(F)(F)F)cc2)C2CCC3CCCCC3C2)cc1 (centres unmarked)	human glucagon receptor (Homo sapiens, UniProt P47871)	-0.70
CCCCC(CC)CN(Cc1ccc(C(=O)NCCC(=O)O)cc1)C(=O)Nc1cccc(C#N)c1 (centres unmarked)	human glucagon receptor (Homo sapiens, UniProt P47871)	0.37
O=C(Nc1nn[nH]n1)c1ccc(CN(C(=O)Cc2ccc(F)cc2F)c2ccc(C3CCCCC3)cc2)cc1	human glucagon receptor (Homo sapiens, UniProt P47871)	-0.25
O=C(O)CCNC(=O)c1ccc(CN(C(=O)Nc2ccc(OC(F)(F)F)cc2)[C@H]2CC[C@H](OC(=O)Nc3ccc(OC(F)(F)F)cc3)CC2)cc1	human glucagon receptor (Homo sapiens, UniProt P47871)	0.22
O=C(Nc1nn[nH]n1)c1ccc(CN(C(=O)Nc2ccc(Cl)c(C(F)(F)F)c2)c2ccc(C3CCCCC3)cc2)cc1	human glucagon receptor (Homo sapiens, UniProt P47871)	-1.68
CCN(c1ccccc1)S(=O)(=O)c1cc(NC(=O)N(Cc2ccc(C(=O)NCCC(=O)O)cc2)[C@H]2CC[C@H](C3CCCCC3)CC2)ccc1C	human glucagon receptor (Homo sapiens, UniProt P47871)	-2.22
CC(C)(C)[Si](C)(C)OCc1cc(NC(=O)N(Cc2ccc(C(=O)Nc3nn[nH]n3)cc2)c2ccc(C3CCCCC3)cc2)ccc1OC(F)(F)F	human glucagon receptor (Homo sapiens, UniProt P47871)	-1.49

These entries and their values trace back to patent US6875760B2.
